- Test system: RD-ES
- Measurement protocol: relative viability vs DMSO control (72 h) (fraction); higher = more viable cells
- Condition summary: 0.1235 µM
Test readout: relative viability
One number for each entry.

Some entries whose results are on file:
Look up relative viability for this compound: O=C(/C=C\n1cnc(-c2cc(C(F)(F)F)cc(C(F)(F)F)c2)n1)NNc1cnccn1 [Selinexor]
0.705

Try the compound "CN(C)C(=O)c1cc2cnc(Nc3ccc(N4CCNCC4)cn3)nc2n1C1CCCC1"
0.845

Try the compound Cc1cc2c(F)c(Oc3ncnn4cc(OC[C@@H](C)OC(=O)[C@H](C)N)c(C)c34)ccc2[nH]1 [Brivanib_alaninate]
0.962

Answer for every listed entry: what is its relative viability? The entries follow.
1. CCS(=O)(=O)N1CC(CC#N)(n2cc(-c3ncnc4[nH]ccc34)cn2)C1
2. Cc1[nH]c(/C=C2\C(=O)Nc3ccccc32)c(C)c1CCC(=O)O [Orantinib]

1: 0.956; 2: 1.01

---

- Test system: SW872
- Measurement protocol: relative viability vs DMSO control (72 h) (fraction); higher = more viable cells
- Condition summary: 0.00457 µM
Test readout: relative viability

Some entries whose results are on file:
relative viability of "C#Cc1cccc(Nc2ncnc3cc4c(cc23)OCCOCCOCCO4)c1" on SW872?
1.11

Try the compound "CCOc1cc2ncc(C#N)c(Nc3ccc(OCc4ccccn4)c(Cl)c3)c2cc1NC(=O)/C=C/CN(C)C"
1.03

Try the compound Cc1cc2c(F)c(Oc3ncnn4cc(OC[C@@H](C)OC(=O)[C@H](C)N)c(C)c34)ccc2[nH]1 [Brivanib_alaninate]
0.988

Answer for every listed entry: what is its relative viability? The entries follow.
1. COc1cc(N2CCC(N3CCN(C)CC3)CC2)ccc1Nc1ncc(Cl)c(Nc2ccccc2P(C)(C)=O)n1
2. Cc1cc(F)c(C(=O)Nc2cccc(-c3nncn3C(C)C)n2)cc1-n1cnc(C2CC2)c1
3. CN(C)C/C=C/C(=O)Nc1cc2c(Nc3ccc(F)c(Cl)c3)ncnc2cc1O[C@H]1CCOC1
4. COc1cc(Nc2ncc3c(n2)-c2ccc(Cl)cc2C(c2c(F)cccc2OC)=NC3)ccc1C(=O)O

1. 0.94
2. 1.03
3. 1.11
4. 1.03

relative viability of "CN(C)CCCOc1ccc(-c2ccc3ncc4c(c3c2)n(C2CCOCC2)c(=O)n4C)cn1" on SW872?
1.03

---

- System: SW684
- Measurement protocol: relative viability vs DMSO control (72 h) (fraction); higher = more viable cells
- Condition summary: 0.00017 µM
Consider the following molecules; for each one, report its relative viability.
Give bare numbers.

Some entries whose results are on file:
relative viability of Cc1cc2c(F)c(Oc3ncnn4cc(OC[C@@H](C)OC(=O)[C@H](C)N)c(C)c34)ccc2[nH]1 [Brivanib_alaninate] on SW684?
1.15

Try the molecule "Cn1cnc2c(F)c(Nc3ccc(Br)cc3Cl)c(C(=O)NOCCO)cc21"
1.04

Try the molecule "COc1cc2ncnc(Nc3ccc(F)c(Cl)c3)c2cc1OCCCN1CCOCC1"
1.09

Answer for every listed entry: what is its relative viability? The entries follow.
1. Cc1[nH]c(/C=C2\C(=O)Nc3ccccc32)c(C)c1CCC(=O)O [Orantinib]
2. O=S(=O)(c1cccc2c(O)nccc12)N1CCCNCC1 [Hydroxyfasudil]
3. COc1cc(N2CCC(N3CCN(C)CC3)CC2)ccc1Nc1ncc(Cl)c(Nc2ccccc2P(C)(C)=O)n1
4. CCS(=O)(=O)N1CC(CC#N)(n2cc(-c3ncnc4[nH]ccc34)cn2)C1

[1.19, 1.16, 1.04, 1.06]

---

- System: KHOS-240S
- Measurement protocol: relative viability vs DMSO control (72 h) (fraction); higher = more viable cells
- Condition summary: 0.01372 µM
Test readout: relative viability
Give bare numbers.

Some entries whose results are on file:
Look up relative viability for this molecule: "Cc1cc(F)c(C(=O)Nc2cccc(-c3nncn3C(C)C)n2)cc1-n1cnc(C2CC2)c1"
1.07

Try the molecule "CCOc1cc2ncc(C#N)c(Nc3ccc(OCc4ccccn4)c(Cl)c3)c2cc1NC(=O)/C=C/CN(C)C"
1.05

Try the molecule "CN(C)C(=O)c1cc2cnc(Nc3ccc(N4CCNCC4)cn3)nc2n1C1CCCC1"
1.06

Try the molecule "CC(=O)c1c(C)c2cnc(Nc3ccc(N4CCNCC4)cn3)nc2n(C2CCCC2)c1=O"
1.07

Try the molecule "O=C(c1ccc(F)c(F)c1Nc1ccc(I)cc1F)N1CC(O)([C@@H]2CCCCN2)C1"
1.03

Answer for every listed entry: what is its relative viability? The entries follow.
1. O=S(=O)(c1cccc2c(O)nccc12)N1CCCNCC1 [Hydroxyfasudil]
2. Cc1cc2c(F)c(Oc3ncnn4cc(OC[C@@H](C)OC(=O)[C@H](C)N)c(C)c34)ccc2[nH]1 [Brivanib_alaninate]
3. O=C(/C=C\n1cnc(-c2cc(C(F)(F)F)cc(C(F)(F)F)c2)n1)NNc1cnccn1 [Selinexor]

1: 1.1; 2: 1.05; 3: 1.07

---

Consider the following compounds; for each one, report its relative viability.
- System: G401
- Measurement protocol: relative viability vs DMSO control (72 h) (fraction); higher = more viable cells
- Condition summary: 1.111 µM

Some entries whose results are on file:
Look up relative viability for this compound: "COc1cc(N2CCC(N3CCN(C)CC3)CC2)ccc1Nc1ncc(Cl)c(Nc2ccccc2P(C)(C)=O)n1"
0.626

Try the compound "Cn1cnc2c(F)c(Nc3ccc(Br)cc3Cl)c(C(=O)NOCCO)cc21"
0.78

Try the compound "C=CC(=O)N1CCC(CNc2ncnc(N)c2-c2ccc(Oc3ccccc3)cc2)CC1"
0.982

Try the compound "COc1cc(Nc2ncc3c(n2)-c2ccc(Cl)cc2C(c2c(F)cccc2OC)=NC3)ccc1C(=O)O"
0.705

Please examine the following record next.
Look up relative viability for this compound: "O=C1CCc2c(Oc3ccc4c(c3)[C@@H]3[C@H](O4)[C@H]3c3nc4cc(C(F)(F)F)ccc4[nH]3)ccnc2N1"
0.957

---

Consider the following compounds; for each one, report its relative viability.
- System: HT1080
- Measurement protocol: relative viability vs DMSO control (72 h) (fraction); higher = more viable cells
- Condition summary: 0.00017 µM
Give bare numbers.

relative viability of Cc1[nH]c(/C=C2\C(=O)Nc3ccccc32)c(C)c1CCC(=O)O [Orantinib] on HT1080?
1.09

Try the compound CNC(=O)c1c(C)oc2cc(Oc3ncnc4cc(OC)c(OC)cc34)ccc12 [Fruquintinib]
1.08

Try the compound CS(=O)(=O)CCNCc1ccc(-c2ccc3ncnc(Nc4ccc(OCc5cccc(F)c5)c(Cl)c4)c3c2)o1 [Lapatinib]
1.04

Try the compound C[C@@H]1CN(C(=O)c2ccc(NC(=O)c3cc(O[C@H](C)c4c(Cl)ccc(F)c4Cl)c(N)nn3)cc2)C[C@H](C)N1 [Ensartinib]
1.02

Try the compound C#Cc1cccc(Nc2ncnc3cc4c(cc23)OCCOCCOCCO4)c1 [Icotinib]
1.08

Try the compound CC(=O)c1c(C)c2cnc(Nc3ccc(N4CCNCC4)cn3)nc2n(C2CCCC2)c1=O [Palbociclib]
1.09

Answer for every listed entry: what is its relative viability? The entries follow.
1. CO[C@H]1C[C@@H]2CC[C@@H](C)[C@@](O)(O2)C(=O)C(=O)N2CCCC[C@H]2C(=O)O[C@H]([C@H](C)C[C@@H]2CC[C@@H](OC(=O)C(C)(CO)CO)[C@H](OC)C2)CC(=O)[C@H](C)/C=C(\C)[C@@H](O)[C@@H](OC)C(=O)[C@H](C)C[C@H](C)/C=C/C=C/C=C/1C [Temsirolimus]
2. COc1cc2ncnc(Nc3ccc(F)c(Cl)c3)c2cc1OCCCN1CCOCC1 [Gefitinib]

1. 1.02
2. 1.05

Answer for every listed entry: what is its relative viability? The entries follow.
1. COC(=O)c1ccc2c(c1)NC(=O)/C2=C(\Nc1ccc(N(C)C(=O)CN2CCN(C)CC2)cc1)c1ccccc1 [Nintedanib]
2. O=C(c1ccc(F)c(F)c1Nc1ccc(I)cc1F)N1CC(O)([C@@H]2CCCCN2)C1 [Cobimetinib]
3. COc1cc(Nc2ncc3c(n2)-c2ccc(Cl)cc2C(c2c(F)cccc2OC)=NC3)ccc1C(=O)O [Alisertib]

1. 1.05
2. 1.07
3. 1.11

---

Consider the following compounds; for each one, report its relative viability.
- System: VA-ES-BJ
- Measurement protocol: relative viability vs DMSO control (72 h) (fraction); higher = more viable cells
- Condition summary: 0.00457 µM
Give bare numbers.

Some entries whose results are on file:
Look up relative viability for this compound: "CO[C@H]1C[C@@H]2CC[C@@H](C)[C@@](O)(O2)C(=O)C(=O)N2CCCC[C@H]2C(=O)O[C@H]([C@H](C)C[C@@H]2CC[C@@H](OC(=O)C(C)(CO)CO)[C@H](OC)C2)CC(=O)[C@H](C)/C=C(\C)[C@@H](O)[C@@H](OC)C(=O)[C@H](C)C[C@H](C)/C=C/C=C/C=C/1C"
0.547

Try the compound O=C(/C=C\n1cnc(-c2cc(C(F)(F)F)cc(C(F)(F)F)c2)n1)NNc1cnccn1 [Selinexor]
1.03

Try the compound "CCOc1cc2ncc(C#N)c(Nc3ccc(OCc4ccccn4)c(Cl)c3)c2cc1NC(=O)/C=C/CN(C)C"
1

Try the compound "C#Cc1cccc(Nc2ncnc3cc4c(cc23)OCCOCCOCCO4)c1"
1.06

***
Look up relative viability for this compound: "Cc1c2oc3c(C)ccc(C(=O)N[C@@H]4C(=O)N[C@H](C(C)C)C(=O)N5CCC[C@H]5C(=O)N(C)CC(=O)N(C)[C@@H](C(C)C)C(=O)O[C@@H]4C)c3nc-2c(C(=O)N[C@@H]2C(=O)N[C@H](C(C)C)C(=O)N3CCC[C@H]3C(=O)N(C)CC(=O)N(C)[C@@H](C(C)C)C(=O)O[C@@H]2C)c(N)c1=O"
0.733
